Source listed as patent US20260116920A1.

# studySystem: T1, human transferrin receptor (hTfR) (human, UniProt P02786 89-760)
# T1 construct: used as 0.5 uM hTfR dimer solution, immobilised on an NTA sensor chip (Ni capture plus EDC/NHS coupling); also called human TfR; TfR1
# T1 sequence (P02786 89-760 limits assumed): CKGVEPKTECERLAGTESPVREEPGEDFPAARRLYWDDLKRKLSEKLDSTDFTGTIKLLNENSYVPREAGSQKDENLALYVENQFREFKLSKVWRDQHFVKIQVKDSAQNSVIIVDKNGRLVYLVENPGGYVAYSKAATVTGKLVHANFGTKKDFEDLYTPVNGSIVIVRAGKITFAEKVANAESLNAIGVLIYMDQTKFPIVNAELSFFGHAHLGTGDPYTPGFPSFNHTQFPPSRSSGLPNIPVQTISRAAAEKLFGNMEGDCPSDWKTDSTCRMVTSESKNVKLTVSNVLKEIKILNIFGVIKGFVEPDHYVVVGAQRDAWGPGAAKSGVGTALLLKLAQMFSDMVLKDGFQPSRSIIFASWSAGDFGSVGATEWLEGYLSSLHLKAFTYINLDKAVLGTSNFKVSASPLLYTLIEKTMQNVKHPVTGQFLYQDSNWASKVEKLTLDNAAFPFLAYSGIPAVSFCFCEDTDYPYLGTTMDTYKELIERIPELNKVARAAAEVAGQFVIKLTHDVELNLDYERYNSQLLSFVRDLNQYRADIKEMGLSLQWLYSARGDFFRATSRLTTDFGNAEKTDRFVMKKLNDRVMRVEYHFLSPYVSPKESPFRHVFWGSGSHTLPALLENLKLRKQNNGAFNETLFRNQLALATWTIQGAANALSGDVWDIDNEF
# assaySummary: SPR; A = KD <1 nM
Starred links: 1 amine or outer side, 2 acyl side, 3 side chain; linkers in the order of their positions; H or OH if unused. Positions of bridges follow the written chain, without caps; N, C: chain ends. Non-standard residues stand in square brackets, D forms with d. No end group written: not given here. F4aao = (S)-2-amino-3-(4-(carboxymethoxy)phenyl)propanoic acid, O=C([C@H](Cc1ccc(OCC(=O)[*:3])cc1)N[*:1])[*:2]; Phe(4-OMe) = F4OMe = (S)-2-amino-3-(4-methoxyphenyl)propanoic acid, COc1ccc(C[C@H](N[*:1])C(=O)[*:2])cc1; E(NHdPEG1Me) = N5-(1,3-dimethoxypropan-2-yl)-L-glutamine, COCC(COC)NC(=O)CC[C@H](N[*:1])C(=O)[*:2]; Trp(5-Cl) = N[C@@H](Cc1c[nH]c2ccc(Cl)cc12)C(=O)O; Phe(3-COOH) = N[C@@H](Cc1cccc(C(=O)O)c1)C(=O)O; NMePhe(3-Cl) = CN[C@@H](Cc1cccc(Cl)c1)C(=O)O; NMePhe(4-F) = CN[C@@H](Cc1ccc(F)cc1)C(=O)O; NMeY = CN[C@@H](Cc1ccc(O)cc1)C(=O)O; NMeF = CN[C@@H](Cc1ccccc1)C(=O)O
Item-by-item account of KD
metricName: KD

* {CH2CO}-AV[NMePhe(4-F)]V[Trp(5-Cl)]NY[Phe(4-OMe)]IIRRFYC-NH2 (thioether N-15; not fully specified (residue 14); also: linker PEG4c, place not given here) [894_0255] | < 1 nM
* {CH2CO}-AV[NMePhe(4-F)]V[Trp(5-Cl)]NYYIIRRFYC-NH2 (thioether N-15; not fully specified (residue 14); also: linker PEG4c, place not given here) [894_0254] | < 1 nM
* {CH2CO}-AV[NMeF]VWNYYIIRRY[NMeY]C (thioether N-15; not fully specified (C-terminus)) [894_3151] | < 1 nM
* {CH2CO}-AV[NMeF]V[Trp(5-Cl)]NYYIIRRFYC-NH2 (thioether N-15; not fully specified (residue 14); also: linker PEG4c, place not given here) [894_0250] | < 1 nM
* {CH2CO}-AV[NMePhe(3-Cl)]VWNY[F4aao]II[E(NHdPEG1Me)]R[Phe(3-COOH)][NMeY]C-NH2 (thioether N-15; also: linker PEG4c, place not given here) [849_0399] | < 1 nM
* {CH2CO}-AV[NMeF]V[Trp(5-Cl)]NY[Phe(4-OMe)]IIRRYYC-NH2 (thioether N-15; not fully specified (residue 14); also: linker PEG4c) [894_0289] | < 1 nM
* {CH2CO}-AV[NMeF]V[Trp(5-Cl)]NY[Phe(4-OMe)]IIRRFYC-NH2 (thioether N-15; not fully specified (residue 14); also: linker PEG4c, place not given here) [894_0251] | < 1 nM
